- assayProcedure: chemical genetic growth profiling, strain panel (AID 1159580);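 note: tested at 20 µM; growth read once vehicle control cultures reached saturation at 30 °C; lower values mean less growth of the strain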
- reportedConditions: S. cerevisiae deletion strains, growth OD, locus YDR477W, strain SNF1
Screen size: about 5,500 compounds; about 2,000 (36%) were called active. Inconclusive results (about 18%) are left out. Cut-off read from the data, not from the text of the source: active = normalized growth mostly below about 0.91 (no sharp cut-off); inconclusive = no clear call, values can overlap the other calls; inactive = mostly above about 0.92. The list shows a part of the results.
Your reply should match one of these outcome classes. T = active, F = inactive

Examples with answers:
Fc1ccc(N/N=C\Cc2nnnn2-c2ccccc2)c(F)c1; T
CC(O)(CNCc1ccc(Cl)cc1)CSc1ccccc1Cl (centres undefined); F
Clc1ccccc1N/N=C\Cc1nnnn1-c1ccccc1; F
Cc1csc2ncnc(N/N=C\c3ccccc3Cl)c12; F
CCC(C)COC(=O)/C=C/c1ccc(N=Cc2ccc(OC)cc2)cc1 (centres undefined); F

Moving on to the next molecule.
Dear all, I need the recorded test outcome for `CN(C(=O)N(C)c1ccc(Cl)cc1C(=O)c1ccccc1Cl)c1ccc(Cl)cc1C(=O)c1ccccc1Cl` , thank you.
T

Values were extracted from PubChem BioAssay AID1159580.
